Entries and their binding signal values follow.
Biological target: T1, RBFOX1 RRM RbFoxmut (Fox-RRM*) (Homo sapiens, UniProt Q9NWB1 109-208, R118D;E147R;N151S;E152T)
T1 sequence: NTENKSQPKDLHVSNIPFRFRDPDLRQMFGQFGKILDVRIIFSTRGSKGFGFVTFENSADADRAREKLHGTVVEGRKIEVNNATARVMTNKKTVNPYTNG
Test: EMSA; HiTS-Eq, 1 nM pool, 10 min; buffer printed only for the single-RNA assays: 10 mM Tris pH 7.5, 150 mM NaCl, 3.4 mM EDTA, 0.001% NP-40, 30 C
Details: tags: His6 N-terminal (pET28a); label: 5' 32P
Over roughly 16,000 sequences, “ka relative to ugcaugu” has its median near 0.096; the highest 2% begin near 0.35. This excerpt belongs to a sample that is enriched for the highest values.

| binder | binding signal |
| --- | --- |
| GUAAAAU (DNA:RNA) RNA: GGGAGACCGGAAUUCAGAUUGUCCGUAAAAUUUAAAUCCCGUCGUAGCCACCA DNA 1: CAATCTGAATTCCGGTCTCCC DNA 2: TGGTGGCTACGACGGGATT | 0.0936 KA relative to UGCAUGU |

# evaluate next
Lab book: binding signal of UCCUGAU (DNA:RNA) RNA: GGGAGACCGGAAUUCAGAUUGUCCUCCUGAUUUAAAUCCCGUCGUAGCCACCA DNA 1: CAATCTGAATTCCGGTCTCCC DNA 2: TGGTGGCTACGACGGGATT noted as 0.0975 KA relative to UGCAUGU
